These data points were gathered from ChEMBL document CHEMBL1138783.

target: Histone deacetylase; assay: Inhibitory activity against rat liver Histone deacetylase with substrate 3a
Square brackets hold non-standard residues; d marks the D form. Peptide text beside a SMILES is read from it. * marks the point of attachment. Asu = N[C@@H](CCCCCC(=O)O)C(=O)O; Aib = CC(C)(N)C(=O)O; NHOH = ON*
Doc: threshold 0.1 µM (exclusive). Items with IC50 beneath it return T; others return F.

compound: O=C(CCCCC[C@@H]1NC(=O)[C@H]2CCCN2C(=O)[C@H](Cc2ccccc2)NC(=O)[C@H](Cc2ccccc2)NC1=O)NO
group: F
//
compound: CC[C@@H](C)[C@@H]1NC(=O)[C@@H](Cc2ccc(OC)cc2)NC(=O)[C@H](CCCCCC(=O)NO)NC(=O)[C@H]2CCCN2C1=O
group: T
//
compound: CN(C)c1ccc(C(=O)NCCCCCCC(=O)NO)cc1
group: T
//
compound: CN(C)c1ccc(C(=O)NCCCCCCCC(=O)NO)cc1
group: F
//
compound: CC1(C)NC(=O)[C@H](CCCCCC(=O)NO)NC(=O)[C@H]2CCCN2C(=O)[C@H](Cc2ccccc2)NC1=O (cyclo([Aib]F[dP][Asu](NHOH)))
group: F

====

Readings of metabolised at 3 h for the listed molecules
tested on: histone deacetylase (HDAC); test: Percent conversion by rat liver histone deacetylase (HDAC) was determined after 3 h; format: ADME; settings: read-out: Conversion
quantity: metabolised at 3 h (%)

smiles: CCC(=O)NCCCC[C@H](NC(=O)OCc1ccccc1)C(=O)Nc1ccc2c(C)cc(=O)oc2c1
readoutNumber: 47

smiles: CCCC(=O)NCCCC[C@H](NC(=O)OCc1ccccc1)C(=O)Nc1ccc2c(C)cc(=O)oc2c1
readoutNumber: 12

smiles: CC(=O)NCCCC[C@H](NC(=O)OCC1c2ccccc2-c2ccccc21)C(=O)Nc1ccc2c(C)cc(=O)oc2c1
readoutNumber: 78

smiles: Cc1cc(=O)oc2cc(NC(=O)[C@H](CCCCNC(=O)C(F)(F)F)NC(=O)OCc3ccccc3)ccc12
readoutNumber: 57

smiles: CC(=O)NCCCC[C@H](NC(=O)OC(C)(C)C)C(=O)Nc1ccc2c(C(F)(F)F)cc(=O)oc2c1
readoutNumber: 47

smiles: Cc1cc(=O)oc2cc(NC(=O)[C@H](CCCCNC(=O)Cc3ccccc3)NC(=O)OCc3ccccc3)ccc12
readoutNumber: 0

smiles: CC(=O)NCCCC[C@H](NC(=O)OC(C)(C)C)C(=O)Nc1ccc2c(C)cc(=O)oc2c1
readoutNumber: 70

smiles: CC(=O)NCCCC[C@@H](NC(=O)OCc1ccccc1)C(=O)Nc1ccc2c(C)cc(=O)oc2c1
readoutNumber: 0

smiles: CC(=O)NCCCC[C@H](NC(=O)OCc1ccccc1)C(=O)Nc1ccc2c(C)cc(=O)oc2c1
readoutNumber: 93

====

Readings of metabolised at 24 h for the listed molecules
system: histone deacetylase (HDAC); experiment: Percent conversion by rat liver histone deacetylase (HDAC) was determined after 24 h; format: ADME; conditions: read-out: Conversion

smiles: CCC(=O)NCCCC[C@H](NC(=O)OCc1ccccc1)C(=O)Nc1ccc2c(C)cc(=O)oc2c1
metabolised at 24 h: 87%

smiles: CC(=O)NCCCC[C@H](NC(=O)OCC1c2ccccc2-c2ccccc21)C(=O)Nc1ccc2c(C)cc(=O)oc2c1
metabolised at 24 h: 90%

smiles: CC(=O)NCCCC[C@H](NC(=O)OCc1ccccc1)C(=O)Nc1ccc2c(C)cc(=O)oc2c1
metabolised at 24 h: 100%

smiles: CC(=O)NCCCC[C@H](NC(=O)OC(C)(C)C)C(=O)Nc1ccc2c(C(F)(F)F)cc(=O)oc2c1
metabolised at 24 h: 96%

smiles: CC(=O)NCCCC[C@H](NC(=O)OC(C)(C)C)C(=O)Nc1ccc2c(C)cc(=O)oc2c1
metabolised at 24 h: 100%

====

Readings of metabolised at 6 h for the listed compounds
tested on: histone deacetylase (HDAC); experiment: Percent conversion by rat liver histone deacetylase (HDAC) was determined after 6 h; format: ADME; conditions: read-out: Conversion

smiles: Cc1cc(=O)oc2cc(NC(=O)[C@H](CCCCNC(=O)Cc3ccccc3)NC(=O)OCc3ccccc3)ccc12
metabolised at 6 h (%): 0
//
smiles: CC(=O)NCCCC[C@H](NC(=O)OCc1ccccc1)C(=O)Nc1ccc2c(C)cc(=O)oc2c1
metabolised at 6 h (%): 96
//
smiles: CC(=O)NCCCC[C@H](NC(=O)OC(C)(C)C)C(=O)Nc1ccc2c(C(F)(F)F)cc(=O)oc2c1
metabolised at 6 h (%): 68
//
smiles: CC(=O)NCCCC[C@@H](NC(=O)OCc1ccccc1)C(=O)Nc1ccc2c(C)cc(=O)oc2c1
metabolised at 6 h (%): 3
//
smiles: CC(=O)NCCCC[C@H](NC(=O)OC(C)(C)C)C(=O)Nc1ccc2c(C)cc(=O)oc2c1
metabolised at 6 h (%): 91
//
smiles: CCC(=O)NCCCC[C@H](NC(=O)OCc1ccccc1)C(=O)Nc1ccc2c(C)cc(=O)oc2c1
metabolised at 6 h (%): 74
//
smiles: CCCC(=O)NCCCC[C@H](NC(=O)OCc1ccccc1)C(=O)Nc1ccc2c(C)cc(=O)oc2c1
metabolised at 6 h (%): 21
//
smiles: Cc1cc(=O)oc2cc(NC(=O)[C@H](CCCCNC(=O)C(F)(F)F)NC(=O)OCc3ccccc3)ccc12
metabolised at 6 h (%): 54
//
smiles: CC(=O)NCCCC[C@H](NC(=O)OCC1c2ccccc2-c2ccccc21)C(=O)Nc1ccc2c(C)cc(=O)oc2c1
metabolised at 6 h (%): 86

====

tested on: histone deacetylase (HDAC); assay: Percent conversion by rat liver histone deacetylase (HDAC) was determined after 24 h; type: ADME; details: read-out: Conversion
Readings of metabolised at 24 h for the listed molecules

smiles: Cc1cc(=O)oc2cc(NC(=O)[C@H](CCCCNC(=O)C(F)(F)F)NC(=O)OCc3ccccc3)ccc12
metabolised at 24 h: 64%
--
smiles: CC(=O)NCCCC[C@@H](NC(=O)OCc1ccccc1)C(=O)Nc1ccc2c(C)cc(=O)oc2c1
metabolised at 24 h: 14%
--
smiles: CCCC(=O)NCCCC[C@H](NC(=O)OCc1ccccc1)C(=O)Nc1ccc2c(C)cc(=O)oc2c1
metabolised at 24 h: 48%
--
smiles: Cc1cc(=O)oc2cc(NC(=O)[C@H](CCCCNC(=O)Cc3ccccc3)NC(=O)OCc3ccccc3)ccc12
metabolised at 24 h: 0%

====

Readings of log10(IC50) for the listed compounds
biological target: Histone deacetylase; assay: Inhibitory activity against rat liver Histone deacetylase with substrate 5b
Square brackets hold non-standard residues; d marks the D form. Peptide text beside a SMILES is read from it. * marks the point of attachment. Asu = N[C@@H](CCCCCC(=O)O)C(=O)O; Aib = CC(C)(N)C(=O)O; NHOH = ON*
quantity: log10(IC50) (log10 of the value in nM)

compound: O=C(CCCCC[C@@H]1NC(=O)[C@H]2CCCN2C(=O)[C@H](Cc2ccccc2)NC(=O)[C@H](Cc2ccccc2)NC1=O)NO
assaySystem: Histone deacetylase
log10(IC50): 1.82
//
compound: CC1(C)NC(=O)[C@H](CCCCCC(=O)NO)NC(=O)[C@H]2CCCN2C(=O)[C@H](Cc2ccccc2)NC1=O (cyclo([Aib]F[dP][Asu](NHOH)))
assaySystem: Histone deacetylase
log10(IC50): 1.33
//
compound: CN(C)c1ccc(C(=O)NCCCCCCCC(=O)NO)cc1
assaySystem: Histone deacetylase
log10(IC50): 2.38
//
compound: CC[C@@H](C)[C@@H]1NC(=O)[C@@H](Cc2ccc(OC)cc2)NC(=O)[C@H](CCCCCC(=O)NO)NC(=O)[C@H]2CCCN2C1=O
assaySystem: Histone deacetylase
log10(IC50): 0.80
//
compound: CN(C)c1ccc(C(=O)NCCCCCCC(=O)NO)cc1
assaySystem: Histone deacetylase
log10(IC50): 3.55

====

tested on: histone deacetylase (HDAC); test: Percent conversion by rat liver histone deacetylase (HDAC) was determined after 2 h; type: ADME; details: read-out: Conversion

smiles: Cc1cc(=O)oc2cc(NC(=O)[C@H](CCCCNC(=O)Cc3ccccc3)NC(=O)OCc3ccccc3)ccc12
assaySystem: histone deacetylase (HDAC)
metabolised at 2 h [%]: 0
--
smiles: CCC(=O)NCCCC[C@H](NC(=O)OCc1ccccc1)C(=O)Nc1ccc2c(C)cc(=O)oc2c1
assaySystem: histone deacetylase (HDAC)
metabolised at 2 h [%]: 33
--
smiles: CC(=O)NCCCC[C@H](NC(=O)OC(C)(C)C)C(=O)Nc1ccc2c(C)cc(=O)oc2c1
assaySystem: histone deacetylase (HDAC)
metabolised at 2 h [%]: 60
--
smiles: CC(=O)NCCCC[C@H](NC(=O)OCC1c2ccccc2-c2ccccc21)C(=O)Nc1ccc2c(C)cc(=O)oc2c1
assaySystem: histone deacetylase (HDAC)
metabolised at 2 h [%]: 74
